# target: Aldo-keto reductase family 1 member B1 (Homo sapiens, UniProt P15121)
# assay procedure: Inhibition of recombinant human ALR2 using D,L-glyceraldehyde and NADPH as substrate preincubated for 3 mins followed by substrate addition and measured for 3 mins by spectrophotometric analysis
# setup conditions: read-out: IC50
The reader will find reported log10 of IC50 values listed item by item below.
Answers are given as log10 of IC50 in µM.

Looking up "CC(C)[C@@H](NC(=O)c1cnc2c(=O)[nH]c(N)nc2n1)C(=O)O" , I see its log10 of IC50 listed as 2.29

Looking up "Nc1nc2nc(C(=O)NCCCC(=O)O)cnc2c(=O)[nH]1" , I see its log10 of IC50 listed as 1.41

Looking up "Nc1nc2nc(C(=O)NCCC(=O)O)cnc2c(=O)[nH]1" , I see its log10 of IC50 listed as 1.24

Looking up "Nc1nc2nc(C(=O)N[C@H](C(=O)O)c3ccccc3)cnc2c(=O)[nH]1" , I see its log10 of IC50 listed as 1.63

Looking up "CC[C@H](C)[C@H](NC(=O)c1cnc2c(=O)[nH]c(N)nc2n1)C(=O)O" , I see its log10 of IC50 listed as 1.84

Looking up "Nc1nc2nc(C(=O)N[C@@H](Cc3ccccc3)C(=O)O)cnc2c(=O)[nH]1" , I see its log10 of IC50 listed as 1.66

Others:
Looking up "Nc1nc2nc(C(=O)NCCCCC(=O)O)cnc2c(=O)[nH]1" , I see its log10 of IC50 listed as 1.07

Looking up "Nc1nc2nc(C(=O)N[C@H](CCc3ccccc3)C(=O)O)cnc2c(=O)[nH]1" , I see its log10 of IC50 listed as 1.62

Looking up "C[C@@H](NC(=O)c1cnc2c(=O)[nH]c(N)nc2n1)C(=O)O" , I see its log10 of IC50 listed as 1.86

Looking up "Nc1nc2nc(C(=O)N[C@H](Cc3ccccc3)C(=O)O)cnc2c(=O)[nH]1" , I see its log10 of IC50 listed as 1.83

Looking up "Nc1nc2nc(C(=O)N[C@@H](CO)C(=O)O)cnc2c(=O)[nH]1" , I see its log10 of IC50 listed as 1.47

Looking up "Nc1nc2nc(C(=O)NCCCCCC(=O)O)cnc2c(=O)[nH]1" , I see its log10 of IC50 listed as 0.60

Looking up "Nc1nc2nc(C(=O)N[C@@H](C(=O)O)c3ccccc3)cnc2c(=O)[nH]1" , I see its log10 of IC50 listed as 1.75

Looking up "CC(C)C[C@H](NC(=O)c1cnc2c(=O)[nH]c(N)nc2n1)C(=O)O" , I see its log10 of IC50 listed as 1.79

Looking up "Nc1nc2nc(C(=O)N[C@H](Cc3ccc(O)cc3)C(=O)O)cnc2c(=O)[nH]1" , I see its log10 of IC50 listed as 2.76

---

# target: Aldo-keto reductase family 1 member B1 (Homo sapiens)
# assay procedure: Inhibition of recombinant human ALR2 using D,L-glyceraldehyde and NADPH as substrate preincubated for 3 mins followed by substrate addition and measured for 3 mins by spectrophotometric analysis
# setup conditions: read-out: IC50
measured endpoint: IC50 (µM)
# unit: µM | format: bare number

Use the examples below as a reference point.
Looking up "C[C@H](NC(=O)c1cnc2c(=O)[nH]c(N)nc2n1)C(=O)O" , I see its IC50 listed as 12.4

Looking up "CC[C@@H](C)[C@@H](NC(=O)c1cnc2c(=O)[nH]c(N)nc2n1)C(=O)O" , I see its IC50 listed as 278

Looking up "CC(C)[C@H](NC(=O)c1cnc2c(=O)[nH]c(N)nc2n1)C(=O)O" , I see its IC50 listed as 83.4

Looking up "Nc1nc2nc(C(=O)N[C@@H](CCc3ccccc3)C(=O)O)cnc2c(=O)[nH]1" , I see its IC50 listed as 25.1

Others:
Looking up "Nc1nc2nc(C(=O)N[C@@H](Cc3ccc(O)cc3)C(=O)O)cnc2c(=O)[nH]1" , I see its IC50 listed as 216
